test system: MDA-MB-435 melanoma; assay: NCI-60 one-dose screen, 48 h (100 = growth as untreated, 0 = no growth, -100 = all killed); details: 10 µM unless noted
This is part of a sample that, as a whole, favours compounds with a hit. Of some 83,000 tested, about 20% had one in any assay.
ASSAY METRIC: growth (%)
// return numeric value only (unit: %, not printed)

Looking up CCC1(NC(=O)c2cc(F)c(F)c(F)c2F)C(=O)NC(=O)N(C(C)C)C1=O (configuration not stated) , I found its growth recorded as 59.8

Looking up CN1C2CCC1[C@@H](COC(=O)c1ccccc1)[C@@H](O)C2 (some centres not stated) , I found its growth recorded as 121

Looking up `O=C(O)c1cc([N+](=O)[O-])cc([N+](=O)[O-])c1` , I found its growth recorded as 101

---
Looking up `CCCCS(=O)(=O)Cl` , I found its growth recorded as 108

Looking up `O=C(NC(Cl)=C(Cl)Cl)P(=O)(c1ccccc1)c1ccccc1` , I found its growth recorded as 92

Looking up `COC(=O)CCP(CCC(=O)OC)c1ccccc1` , I found its growth recorded as 97.2

Looking up `COc1ccn(C)c(=O)c1C#N` , I found its growth recorded as 107

Looking up `CC1(C)CN=C(NN=C(/C=C/c2ccc(C(F)(F)F)cc2)/C=C/c2ccc(C(F)(F)F)cc2)NC1` , I found its growth recorded as -83.6

---

Quick reference for growth among some molecules
test system: A549/ATCC NSCLC; assay: NCI-60 one-dose screen, 48 h (100 = growth as untreated, 0 = no growth, -100 = all killed); settings: 10 µM unless noted
About 83,000 compounds went through this panel and 20% of them were active in at least one assay; those are over-represented in the sample as a whole.
// return numeric value only (unit: %, not printed)

Below are worked cases with known answers.
Looking up `CO/N=C1\CC[C@]2(C)[C@H]3CC[C@]4(C)C(=O)CC[C@H]4[C@@H]3C[C@@H]3SC(N)=N[C@@]32C1` , I found its growth recorded as 101

Looking up `Cc1c(C)c(N)c(C)c(C)c1N` , I found its growth recorded as 79.6

Looking up `O=C(NC1=NCC[Se]1)c1ccccc1O` , I found its growth recorded as 56.8

Looking up `C=C[Se]CC(=O)/C=C/c1ccccc1` , I found its growth recorded as 32.3

Looking up `CN(C)c1ccc(C=C2C(=O)NC(=O)NC2=O)cc1` , I found its growth recorded as 92.6

---
Looking up `CCC(Br)(CC)C(=O)NC(N)=O` , I found its growth recorded as 104

Looking up `CCCCn1c(=O)c(C(=O)NCc2ccccc2Cl)c(O)c2ccccc21` , I found its growth recorded as 58

Looking up `COC[C@H]1OC(=O)c2coc3c2[C@@]1(C)C1=C(C3=O)[C@@H]2CCC(=O)[C@@]2(C)C[C@H]1OC(C)=O` , I found its growth recorded as 10.1

Looking up `O=C1C=C(N2CC2)c2ccccc2C1=O` , I found its growth recorded as 54.3

---

test system: OVCAR-3 ovarian; experiment: NCI-60 one-dose screen, 48 h; settings: 10 µM unless noted
About 83,000 compounds went through this panel and 20% of them were active in at least one assay; those are over-represented in the sample as a whole. Activity calls are given as the source filed them. The calls were made as follows: active = growth percent below 10; inactive = the rest.
Could you please pick one outcome from this set? YES = active, NO = inactive

Input: In this assay, the call recorded for `CC1(C)C=Cc2c(ccc3c2[N+]([O-])=C2C3=C[C@@]34NC(=O)[C@]5(CCCN5C3=O)C[C@@H]4C2(C)C)O1` was what?
Output: NO

---
Input: In this assay, the call recorded for CC(Oc1ccc(-c2ccccc2)cc1)C(=O)O (stereo unspecified) was what?
Output: NO

Input: In this assay, the call recorded for NC1CN2CCC1CC2 (stereo unspecified) was what?
Output: NO

Input: In this assay, the call recorded for CCCC(C)SP(=S)(SC(C)CCC)SC(C)CCC (stereo unspecified) was what?
Output: NO

Input: In this assay, the call recorded for `C[C@@]12CCCc3coc(c31)C(=O)c1cc3c(cc12)C(=O)C1=C(NCCS1(=O)=O)C3=O` was what?
Output: YES

Input: In this assay, the call recorded for `Cc1cc(NC(=O)NCCCOc2ccc(N3C(N)=NC(N)=NC3(C)C)cc2Cl)ccc1S(=O)(=O)F` was what?
Output: NO

---

system: CAKI-1 renal; assay: NCI-60 one-dose screen, 48 h (100 = growth as untreated, 0 = no growth, -100 = all killed); conditions: 10 µM unless noted
About 83,000 compounds went through this panel and 20% of them were active in at least one assay; those are over-represented in the sample as a whole.
ASSAY METRIC: growth (%)
// return numeric value only (unit: %, not printed)

Below are worked cases with known answers.
Looking up `O=C=Nc1ccc(Br)cc1` , I found its growth recorded as 104

Looking up `C/C(=C(\c1ccc(OCCN2CCOCC2)cc1)c1ccc(OC(=O)Cc2ccccc2)cc1)c1ccc(Cl)cc1` , I found its growth recorded as 78.7

Looking up O=C1c2ccccc2C(=O)N1N1CC1c1ccccc1 (stereo unspecified) , I found its growth recorded as 95.7

---
Looking up `O=C/C=C/c1ccco1` , I found its growth recorded as 95.6

Looking up `O=[N+]([O-])c1ccc(CI)cc1` , I found its growth recorded as 54.5

Looking up COCC1OC2OC3C(COC)OC(OC4C(COC)OC(OC5C(COC)OC(OC6C(COC)OC(OC7C(COC)OC(OC8C(COC)OC(OC1C(O)C2O)C(O)C8O)C(O)C7O)C(O)C6O)C(O)C5O)C(O)C4O)C(O)C3O (stereo unspecified) (tested in a mixture with another compound) , I found its growth recorded as 102

---

system: OVCAR-8 ovarian; test: NCI-60 one-dose screen, 48 h; conditions: 10 µM unless noted
The panel holds about 83,000 compounds, 20% with a hit somewhere; the sample as a whole holds those more often. Calls of active or inactive are those of the source. The calls were made as follows: active = growth percent below 10; inactive = the rest.
Could you please pick one outcome from this set? true (1) = active, false (0) = inactive

Consider the worked cases shown below.
Input: In this assay, the call recorded for `O=C(O)c1cc([N+](=O)[O-])cc([N+](=O)[O-])c1` was what?
Output: false (0)

Input: In this assay, the call recorded for `N#CCc1ccc(CC#N)cc1` was what?
Output: false (0)

Input: In this assay, the call recorded for `COc1ccc(O)c2c(=O)c3c(OC)cc4c(c3oc12)[C@@H]1C=CO[C@@H]1O4` was what?
Output: false (0)

---
Input: In this assay, the call recorded for `CCCCOCCOP(=O)(OCCOCCCC)OCCOCCCC` was what?
Output: false (0)

Input: In this assay, the call recorded for CCCC(C)SP(=S)(SC(C)CCC)SC(C)CCC (stereo unspecified) was what?
Output: false (0)

Input: In this assay, the call recorded for CCCN1C(=O)NC(=O)C(CC)(N2C(=O)c3c(F)c(F)c(F)c(F)c3C2=O)C1=O (stereo unspecified) was what?
Output: true (1)

---

test system: ACHN renal; assay: NCI-60 one-dose screen, 48 h; details: 10 µM unless noted
The panel holds about 83,000 compounds, 20% with a hit somewhere; the sample as a whole holds those more often. The source made the active and inactive calls. The calls were made as follows: active = growth percent below 10; inactive = the rest.
Could you please pick one outcome from this set? active, inactive

Consider the worked cases shown below.
Input: In this assay, the call recorded for `OCCN=Cc1c[nH]c2ccccc12` was what?
Output: inactive

Input: In this assay, the call recorded for `Cc1cc(NC(=O)NCCCOc2ccc(N3C(N)=NC(N)=NC3(C)C)cc2Cl)ccc1S(=O)(=O)F` was what?
Output: inactive

Input: In this assay, the call recorded for `COc1ccc2c(c1)c(-c1nc(-c3c[nH]c4ncccc34)cs1)cn2CCCCN1CCOCC1` was what?
Output: inactive

Input: In this assay, the call recorded for `Cc1cc(Br)c([N+](=O)[O-])cc1[N+](=O)[O-]` was what?
Output: inactive

Input: In this assay, the call recorded for `O=C(O)C(F)F` was what?
Output: inactive

---
Input: In this assay, the call recorded for `CC[C@H](C)[C@H](NC(=O)c1ncccn1)C(=O)N(C)[C@H](C[C@@H](OC(C)=O)c1nc(C(=O)N[C@@H](Cc2ccccc2)C[C@H](C)C(=O)OC)cs1)C(C)C` was what?
Output: inactive

Input: In this assay, the call recorded for N#CC(N)c1ccccc1 (configuration not stated) was what?
Output: inactive

Input: In this assay, the call recorded for `CC1=C2[C@H]3OC(=O)[C@@H](C)[C@@H]3CC[C@@]2(C)C=CC1=O` was what?
Output: inactive

Input: In this assay, the call recorded for `CC[C@H](CC[C@@H](C)[C@H]1CC[C@H]2[C@@H]3CC[C@H]4C[C@]5(CC[C@]4(C)[C@H]3CC[C@]12C)OO[C@](C)(C(F)(F)F)O5)C(C)C` was what?
Output: inactive

The values you see were collected from PubChem BioAssay (NCI).
